Entries annotated with measured Binding Score
Target: T1, Soluble CTLA-4-Ig (extracellular domain of human CTLA-4 fused to the Fc portion of human IgG1) (human, UniProt P16410 36-161, FITC-conjugated in the FACS binding assays)
T1 construct: extracellular domain; bought from R&D Systems; also called sCTLA-4-Ig; CTLA-4-Ig Fc; not shown: Fc portion of human IgG1
T1 sequence (P16410 36-161): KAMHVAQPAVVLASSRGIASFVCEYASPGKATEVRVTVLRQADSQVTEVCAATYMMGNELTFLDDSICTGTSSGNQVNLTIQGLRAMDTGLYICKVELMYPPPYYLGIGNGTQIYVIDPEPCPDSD
Experiment: competitive FACS on transfected cells, FITC-sCTLA-4-Ig with biotin-sCD28-Ig; grade 0-2 of CTLA-4/CD28 ratio vs WT hB7-1
The answer should be written as a number, with no unit following it.

Below, each entry is followed by its recorded Binding Score result.
Round 2 CTLA4 A-B11-5 (ligand) ITPKSATKRVKETVMLSCDYSTSTEELTSLRIYWQKDSKMVLAILPGKVQVWPEYKNRTITDMNDNPRIVILALRLSDSGTYTCVIQKPDLKGAYKLEHLTSVRLMIRADFPVPTINDLGNPSPNIRRLICSTSGGFPRPHLYWLENGEELNATNTTLSQDPETKLYMISSELDFNMTSNHSFLCLVKYGDLTVSQTFYWQESKPTPSANQHLTWTIIIPVSAFGISVIIAVILTCLTCRNAAIRRQRRENEVEMQSCSQSP    1
Round 2 CTLA4BP 5x2-e12 (ligand) VIHVTKEVKEVATLSCGHNVSVEELAQTRIHWQKEKKMVLTMMSGGMNIWPEYKNRTIFDITNNLSIVILALRPSDEGTYECVVLKYEKDAFKREHLAEVTLSVKADFPTPSISDFEIPTSNIRRIICSTSGGFPEPHLSWLENGEELNAISTTVSQDPGTELYAVSSKLDFNMTTNRSFVCLIKYGHLRVNQTFNWNTTKQEHFPDNLLPSWAITLISVNGIFVICCLTYCFAPRCRERRRNERLRRESVRPV    0

Attention now shifts to the item below.
Supply reported Binding Score belonging to this binder: Round 2 CTLA4BP 5x4-a1 (ligand) VIHVTKEVKEVATLSCGHNVSVEELAQTRIYWQKEKKMVLTMMSGDMNIWPEHKNRTIFDITNNLSIVILALRPSDEGTYECVVLKYEKDAFKREHLAEVTLSVKADFPTPSITDFEIPTSNIRRIICSTSGGFPEPHLSWLENGEELNAINTTVSQDPGTELYTVSSKLDFNMTTNRSFVCLIKYGHLRVNQTFNWNTPKQEHFPDNLLPSWAITLISVNGIFVICCLTYCFAPRCRERRRNERLRRESVRPV
0
